Cited source for all entries: the supplement of paper PMC7877785

Protocol notes: self-splicing fitness, log relative to wild type (ln ratio); higher = more splicing; Tetrahymena group I intron in knt gene, E. coli kanamycin selection, DiMSum; sequences stand for … in CUCUCU…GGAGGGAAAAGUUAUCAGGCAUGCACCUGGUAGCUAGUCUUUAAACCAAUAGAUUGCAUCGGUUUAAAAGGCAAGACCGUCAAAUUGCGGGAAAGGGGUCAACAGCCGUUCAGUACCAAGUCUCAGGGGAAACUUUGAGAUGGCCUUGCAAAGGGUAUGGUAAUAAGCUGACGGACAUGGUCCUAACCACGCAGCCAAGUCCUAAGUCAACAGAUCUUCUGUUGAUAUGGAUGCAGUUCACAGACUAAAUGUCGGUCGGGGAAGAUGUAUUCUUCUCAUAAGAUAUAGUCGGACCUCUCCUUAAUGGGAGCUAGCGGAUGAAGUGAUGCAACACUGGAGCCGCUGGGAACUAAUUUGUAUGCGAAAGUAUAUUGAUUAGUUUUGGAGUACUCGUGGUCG;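 also: selection with 25 µg/mL kanamycin versus none on LB agar overnight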
Conditions used: 30 °C
The threshold is inclusive: self-splicing fitness (ln) of exactly -2 counts as Condition met; values below receive Condition not met.

Query :: Textbook exercise: given the entry `GAUAAGCAAUAUUACGAUCA` , state whether its self-splicing fitness (ln) is greater than or equal to -2.
Result :: Condition met

Query :: Textbook exercise: given the entry `GUGAAGCAAUAUUACGGUAC` , state whether its self-splicing fitness (ln) is greater than or equal to -2.
Result :: Condition met

Further cases:
Query :: Textbook exercise: given the entry `CUGGAGCAAUAUUACGUUAC` , state whether its self-splicing fitness (ln) is greater than or equal to -2.
Result :: Condition not met

Query :: Textbook exercise: given the entry `AUUAAGCAAUAUUACGCAGC` , state whether its self-splicing fitness (ln) is greater than or equal to -2.
Result :: Condition not met

Query :: Textbook exercise: given the entry `GUUAAGCAAUAUUACGUGAC` , state whether its self-splicing fitness (ln) is greater than or equal to -2.
Result :: Condition met

Query :: Textbook exercise: given the entry `CAGGAGCAAUAUUACGUCGG` , state whether its self-splicing fitness (ln) is greater than or equal to -2.
Result :: Condition met

Query :: Textbook exercise: given the entry `CCGCAGCAAUAUUACGGAUA` , state whether its self-splicing fitness (ln) is greater than or equal to -2.
Result :: Condition not met

Query :: Textbook exercise: given the entry `UAAUAGCAAUAUUACGGCUC` , state whether its self-splicing fitness (ln) is greater than or equal to -2.
Result :: Condition not met

====

Protocol notes: self-splicing fitness, log relative to wild type (ln ratio); higher = more splicing; Tetrahymena group I intron in knt gene, E. coli kanamycin selection, DiMSum; sequences stand for … in CUCUCU…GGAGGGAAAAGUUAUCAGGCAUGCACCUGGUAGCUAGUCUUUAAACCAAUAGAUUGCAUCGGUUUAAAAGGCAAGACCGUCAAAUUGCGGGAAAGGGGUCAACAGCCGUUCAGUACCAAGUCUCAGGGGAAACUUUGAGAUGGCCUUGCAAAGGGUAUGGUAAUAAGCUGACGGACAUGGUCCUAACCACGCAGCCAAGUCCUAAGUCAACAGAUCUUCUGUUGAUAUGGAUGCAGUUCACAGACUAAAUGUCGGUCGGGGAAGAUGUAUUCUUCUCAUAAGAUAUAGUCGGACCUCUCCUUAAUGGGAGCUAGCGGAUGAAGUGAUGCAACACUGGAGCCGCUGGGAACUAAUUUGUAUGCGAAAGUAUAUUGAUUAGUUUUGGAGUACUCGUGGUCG
Conditions used: 37 °C
The threshold is inclusive: self-splicing fitness (ln) of exactly -2 counts as true (1); values below receive false (0).

For orientation, consider the following solved cases.
Query :: Textbook exercise: given the entry `AGCUAGCAAUAUUACGCCAG` , state whether its self-splicing fitness (ln) is greater than or equal to -2.
Result :: false (0)

Query :: Textbook exercise: given the entry `GGGAAGCAAUAUUACGGCAU` , state whether its self-splicing fitness (ln) is greater than or equal to -2.
Result :: true (1)

Query :: Textbook exercise: given the entry `CUCUAGCAAUAUUACGCGUA` , state whether its self-splicing fitness (ln) is greater than or equal to -2.
Result :: false (0)

Further cases:
Query :: Textbook exercise: given the entry `UAAAAGCAAUAUUACGCCUU` , state whether its self-splicing fitness (ln) is greater than or equal to -2.
Result :: true (1)

Query :: Textbook exercise: given the entry `AGACAGCAAUAUUACGUACC` , state whether its self-splicing fitness (ln) is greater than or equal to -2.
Result :: true (1)

Query :: Textbook exercise: given the entry `UCCCAGCAAUAUUACGGAGU` , state whether its self-splicing fitness (ln) is greater than or equal to -2.
Result :: true (1)

Query :: Textbook exercise: given the entry `GCCCAGCAAUAUUACGGAUA` , state whether its self-splicing fitness (ln) is greater than or equal to -2.
Result :: true (1)

Query :: Textbook exercise: given the entry `CGUUAGCAAUAUUACGGACG` , state whether its self-splicing fitness (ln) is greater than or equal to -2.
Result :: false (0)

Query :: Textbook exercise: given the entry `UCGCAGCAAUAUUACGAUCC` , state whether its self-splicing fitness (ln) is greater than or equal to -2.
Result :: true (1)

Query :: Textbook exercise: given the entry `CCGUAGCAAUAUUACGGGAU` , state whether its self-splicing fitness (ln) is greater than or equal to -2.
Result :: false (0)

Query :: Textbook exercise: given the entry `UAAAAGCAAUAUUACGGAUA` , state whether its self-splicing fitness (ln) is greater than or equal to -2.
Result :: true (1)

Query :: Textbook exercise: given the entry `CAAAAGCAAUAUUACGCCUC` , state whether its self-splicing fitness (ln) is greater than or equal to -2.
Result :: true (1)

Query :: Textbook exercise: given the entry `GCCGAGCAAUAUUACGGACG` , state whether its self-splicing fitness (ln) is greater than or equal to -2.
Result :: true (1)

Query :: Textbook exercise: given the entry `UCUCAGCAAUAUUACGACAU` , state whether its self-splicing fitness (ln) is greater than or equal to -2.
Result :: true (1)

Query :: Textbook exercise: given the entry `CCUCAGCAAUAUUACGUUAG` , state whether its self-splicing fitness (ln) is greater than or equal to -2.
Result :: false (0)

Query :: Textbook exercise: given the entry `AGGGAGCAAUAUUACGCUAA` , state whether its self-splicing fitness (ln) is greater than or equal to -2.
Result :: false (0)

Query :: Textbook exercise: given the entry `CAGCAGCAAUAUUACGCUGA` , state whether its self-splicing fitness (ln) is greater than or equal to -2.
Result :: false (0)

Query :: Textbook exercise: given the entry `UUAGAGCAAUAUUACGACAA` , state whether its self-splicing fitness (ln) is greater than or equal to -2.
Result :: true (1)

Query :: Textbook exercise: given the entry `AUCAAGCAAUAUUACGUACU` , state whether its self-splicing fitness (ln) is greater than or equal to -2.
Result :: true (1)

====

Protocol notes: self-splicing fitness, log relative to wild type (ln ratio); higher = more splicing; Tetrahymena group I intron in knt gene, E. coli kanamycin selection, DiMSum; sequences stand for … in CUCUCU…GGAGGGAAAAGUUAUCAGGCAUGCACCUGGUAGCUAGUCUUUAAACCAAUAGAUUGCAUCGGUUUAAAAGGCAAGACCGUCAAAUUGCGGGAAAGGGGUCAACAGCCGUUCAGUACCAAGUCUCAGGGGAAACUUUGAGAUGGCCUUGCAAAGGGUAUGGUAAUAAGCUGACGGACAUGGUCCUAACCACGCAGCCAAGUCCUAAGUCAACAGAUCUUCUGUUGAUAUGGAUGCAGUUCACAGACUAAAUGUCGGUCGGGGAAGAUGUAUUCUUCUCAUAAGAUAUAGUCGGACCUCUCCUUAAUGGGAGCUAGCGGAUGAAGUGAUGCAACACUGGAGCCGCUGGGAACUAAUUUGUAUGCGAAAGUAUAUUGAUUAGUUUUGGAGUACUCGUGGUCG
Conditions used: 37 °C
The threshold is inclusive: self-splicing fitness (ln) of exactly -2 counts as fulfilled; values below receive not fulfilled.

For orientation, consider the following solved cases.
Query :: Textbook exercise: given the entry `GUUAAGCAAUAUUACGGCGA` , state whether its self-splicing fitness (ln) is greater than or equal to -2.
Result :: fulfilled

Query :: Textbook exercise: given the entry `CUCCAGCAAUAUUACGCCGG` , state whether its self-splicing fitness (ln) is greater than or equal to -2.
Result :: not fulfilled

Query :: Textbook exercise: given the entry `CAUGAGCAAUAUUACGGACG` , state whether its self-splicing fitness (ln) is greater than or equal to -2.
Result :: fulfilled

Query :: Textbook exercise: given the entry `GGAAAGCAAUAUUACGCCUA` , state whether its self-splicing fitness (ln) is greater than or equal to -2.
Result :: fulfilled

Further cases:
Query :: Textbook exercise: given the entry `AACAAGCAAUAUUACGUGGC` , state whether its self-splicing fitness (ln) is greater than or equal to -2.
Result :: not fulfilled

Query :: Textbook exercise: given the entry `UACUAGCAAUAUUACGAUGC` , state whether its self-splicing fitness (ln) is greater than or equal to -2.
Result :: not fulfilled

Query :: Textbook exercise: given the entry `AUGCAGCAAUAUUACGUGAC` , state whether its self-splicing fitness (ln) is greater than or equal to -2.
Result :: not fulfilled

Query :: Textbook exercise: given the entry `UGGAAGCAAUAUUACGGUUA` , state whether its self-splicing fitness (ln) is greater than or equal to -2.
Result :: fulfilled

Query :: Textbook exercise: given the entry `CUUGAGCAAUAUUACGGUAG` , state whether its self-splicing fitness (ln) is greater than or equal to -2.
Result :: fulfilled

Query :: Textbook exercise: given the entry `UGACAGCAAUAUUACGCUAG` , state whether its self-splicing fitness (ln) is greater than or equal to -2.
Result :: fulfilled

Query :: Textbook exercise: given the entry `GUCGAGCAAUAUUACGGUGU` , state whether its self-splicing fitness (ln) is greater than or equal to -2.
Result :: fulfilled

Query :: Textbook exercise: given the entry `CAGAAGCAAUAUUACGUCUG` , state whether its self-splicing fitness (ln) is greater than or equal to -2.
Result :: not fulfilled

Query :: Textbook exercise: given the entry `UGACAGCAAUAUUACGUAGG` , state whether its self-splicing fitness (ln) is greater than or equal to -2.
Result :: fulfilled

Query :: Textbook exercise: given the entry `GUGCAGCAAUAUUACGACUG` , state whether its self-splicing fitness (ln) is greater than or equal to -2.
Result :: not fulfilled

Query :: Textbook exercise: given the entry `GUACAGCAAUAUUACGCUAU` , state whether its self-splicing fitness (ln) is greater than or equal to -2.
Result :: fulfilled
